Where do the numbers come from? From PubChem BioAssay AID2060490.

Test system: 885512-296-R-J2-PDC complex spheroid viability;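 also: spheroids exposed to the compounds for one week; percent of tumor spheroid viability relative to DMSO vehicle control wells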
Assay: Anticancer human tumor 885512-296-R-J2-PDC patient-derived breast carcinoma cell line growth inhibition [GQUAD]
Conditions: second compound 0.1 µM; first compound 0.316 µM; hits give low values
measured-metric: viability, T/C (%)

>>> quantitative_readout("CCCS(=O)(=O)Nc1ccc(F)c(C(=O)c2c[nH]c3ncc(-c4ccc(Cl)cc4)cc23)c1F + Cc1cnc(CNC(=O)c2c(=O)c3ccc(N4CCCN(C)CC4)nc3n3c2sc2ccccc23)cn1")
64.3
>>> quantitative_readout("Cc1[nH]c2ccccc2c1CCNCc1ccc(/C=C/C(=O)NO)cc1 + Cc1[nH]c2ccc(F)cc2c1-c1nc2c3cccnc3c3ncccc3c2[nH]1")
82.4
>>> quantitative_readout("CC1COCCN1c1cc(C2(O)CC3CCC(C2)O3)c2cnn(-c3ccn[nH]3)c2n1 (configuration not stated) + Cc1[nH]c2ccc(F)cc2c1-c1nc2c3cccnc3c3ncccc3c2[nH]1")
2.65
>>> quantitative_readout("CC(C)(O)C1CCC(Nc2ccc3ncc(-c4cccc(C(F)(F)F)c4)n3n2)CC1 (configuration not stated) + CN(C)c1ccc(Nc2c3ccc(NC(=O)CCN4CCCC4)cc3nc3cc(NC(=O)CCN4CCCC4)ccc23)cc1")
97.9
>>> quantitative_readout("Nc1ccn(C2OC(CO)C(O)C2(F)F)c(=O)n1 (configuration not stated) + CN(C)c1ccc(Nc2c3ccc(NC(=O)CCN4CCCC4)cc3nc3cc(NC(=O)CCN4CCCC4)ccc23)cc1")
2.67
>>> quantitative_readout("C=CCn1c(=O)c2cnc(Nc3ccc(N4CCN(C)CC4)cc3)nc2n1-c1cccc(C(C)(C)O)n1 + Cc1[nH]c2ccc(F)cc2c1-c1nc2c3cccnc3c3ncccc3c2[nH]1")
97.2
>>> quantitative_readout("CCc1c2c(nc3ccc(O)cc13)-c1cc3c(c(=O)n1C2)COC(=O)[C@]3(O)CC + Cc1cnc(CNC(=O)c2c(=O)c3ccc(N4CCCN(C)CC4)nc3n3c2sc2ccccc23)cn1")
1.47
